Items are presented alongside their recorded peptide exchange yield.
Molecular target: T1, HLA-A*02:01 (human)
T1 construct: Peptide-receptive HLA-A*02:01 monomer obtained by UV cleavage of a UV-sensitive ligand; captured on streptavidin plates; also called peptide-receptive MHC molecules; MHC class I
Test: UV-ligand exchange, anti-b2m ELISA; grade of peptide exchange yield (>10% = +; >20% = ++; >50 = +++; >75% = ++++)
Where no end group is shown, it is not given here. [ ]: non-standard residue; d: D form. pS = N[C@@H](COP(=O)(O)O)C(=O)O

Recorded results for 2 binders are shown here.
ALASAPTSV: > 75%
ALEEANADLEV: 50 to 75%

What value of peptide exchange yield has been recorded for this entry: YVMESMTYL
> 75%

// lookup peptide exchange yield for TLVDENQSWYL (also called TLVDENQSWYL) […]
50 to 75%

Report peptide exchange yield for RIMEGIPTV please.
> 75%

Returns the measured peptide exchange yield for the input binder. Input: KILE[pS]LFV[pS]L [KILEJLFVJL]
50 to 75%

Record request: peptide exchange yield value, item RLLPDLDEV
> 75%

Data origin, for the record: patent US20200155602A1
